# target-entity: T1, MotA Q76R (bacteriophage T4, UniProt P22915 1-211, Q76R)
# T1 sequence: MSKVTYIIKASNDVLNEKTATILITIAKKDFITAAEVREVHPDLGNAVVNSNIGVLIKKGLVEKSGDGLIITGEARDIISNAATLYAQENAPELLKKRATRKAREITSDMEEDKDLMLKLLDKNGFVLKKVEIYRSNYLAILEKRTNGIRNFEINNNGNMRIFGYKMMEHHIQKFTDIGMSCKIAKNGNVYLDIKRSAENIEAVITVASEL
# test-description: EMSA
quantity-measured: Kd

Looking for the measured Kd of 21 bp MotA box DNA (dsDNA) DNA 1: GAATTATTTGCTTTAGATTAC DNA 2: GTAATCTAAAGCAAATAATTC , can you help?
~600 nM
